For each record, write down the corresponding IC50, PC12 cell survival.
- TESTED ON: human nerve growth factor (beta-NGF) (human, UniProt P01138 122-241)
- Sequence (P01138 122-241): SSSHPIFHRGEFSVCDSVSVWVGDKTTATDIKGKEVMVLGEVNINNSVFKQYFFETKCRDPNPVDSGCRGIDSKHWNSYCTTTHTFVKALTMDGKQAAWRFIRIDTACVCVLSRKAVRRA
- TEST NAME: cell-based or functional assay

Challenge: Quote IC50, PC12 cell survival reported for 1227H8 human IgG4 (antibody, V domains shown) VH: QMQLVQSGAEVKKTGSSVKVSCKASGHTFAYHYLHWVRQAPGQGLEWMGGIIPIFGTTNYAQRFQDRVTITADESTSTAYMELSSLRSEDTAVYYCASADYAWESYQPPQINGVWGRGTMVTVSS VL: QSVLTQPPSVSAAPGQKVTITCSGSTSNIGNNYVSWYQQHPGKAPKLMIYDVSKRPSGVPDRFSGSKSGNSASLDISGLQSEDEADYYCAAWDDSLSEFFFGTGTKLTVL please.
Response given: 0.7 nM

Challenge: Quote IC50, PC12 cell survival reported for 1155H1 human IgG4 (antibody, V domains shown) VH: EVQLVQSGAEVKKPGSSVKVSCKASGGTFSTYGISWVRQAPGQGLEWIGGIIPIFDTGNSAQSFQGRVTITADESTSTAYMEVSSLRSDDTAVYYCASSSRIYDFHLANKGYYDMDVWGQGTMVTVSS VL: QAVLTQPSSVSTPPGQKATISCSGSSSNIGNNYVSWYQQLPGTAPKLLIYDNNKRPSGIPDRFSGSKSGTSATLDITGLQTGDEADYYCGTWDSSLSAWVFGGGTKLTVL please.
Response given: 0.59 nM

Challenge: Quote IC50, PC12 cell survival reported for 1175H8 human IgG4 (antibody, V domains shown) VH: EVQLVQSGAEVKKPGSSVKVSCKASGGTFSTYGISWVRQAPGQRLEWIGGIIPIFDTGNSAQSFQGRVTITADESTSTAYMEVSSLRSDDTAVYYCASSSRIYDATTGLTPYYDMDVWGQGTMVTVSS VL: QAVLTQPSSVSTPPGQKVTISCSGSSSNIGNNYVSWYQQLPGTAPKLLIYDNNKRPSGIPDRFSGSKSGTSATLGITGLRTGDEADYYCGTWDSSLSAWVFGGGTKLTVL please.
Response given: 1.1 nM

Challenge: Quote IC50, PC12 cell survival reported for 1083H4 human IgG4 (antibody, V domains shown) VH: QMQLVQSGAEVKKTGSSVKVSCKASGYTFAYHYLHWVRQAPGQGLEWMGGIIPIFGTTNYAQRFQDRVTITADESTSTAYMELSSLRSEDTAVYYCASADYVWGSYRPDWYFDLWGRGTMVTVSS VL: QSVLTQPPSASGTPGQRVTISCSGSSSNIGSNTVNWYQRLPGAAPQLLIYNNDQRPSGIPDRFSGSKSGTSGSLVISGLQSEDEADYYCASWDDSLNGRVFGGGTKLTVL please.
Response given: ~1100 nM
